test system: 521955-158-R2-J5-PDC complex spheroids, viability; assay: Anticancer human tumor 521955-158-R2-J5-PDC patient-derived pancreatic carcinoma cell line growth inhibition [RAS]; conditions: second compound 1 µM; first compound 0.0316 µM; active compounds read low;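 further: spheroids also contain HUVEC endothelial cells and mesenchymal stem cells as stroma; compound exposure lasted seven days before the viability read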
Threshold 40%. viability, T/C below it: yes. viability, T/C at it or above: no.

Examples with answers:
{"MOLECULE": "CC1(O)CCCC1n1c(=O)c(C(F)F)cc2cnc(NC3CCN(S(C)(=O)=O)CC3)nc21 (stereo not given) + C#Cc1c(F)ccc2cc(O)cc(-c3ncc4c(N5CC6CCC(C5)N6)nc(OCC56CCCN5CC(F)C6)nc4c3F)c12", "CAT": "no"}
{"MOLECULE": "CC(C)n1nc(-c2ccc3oc(N)nc3c2)c2c(N)ncnc21 + C=CC(=O)N1CCN(c2nc(OCC3CCCN3C)nc3c(F)c(-c4nc(N)cc(C)c4C(F)(F)F)c(Cl)cc23)C(C)C1", "CAT": "no"}
{"MOLECULE": "CC(Nc1ccc2c(c1)OCCn1cc(N3C(=O)OCC3C(F)F)nc1-2)C(N)=O (stereo not given) + C#Cc1c(F)ccc2cc(O)cc(-c3ncc4c(N5CC6CCC(C5)N6)nc(OCC56CCCN5CC(F)C6)nc4c3F)c12", "CAT": "yes"}
{"MOLECULE": "NC1c2ccccc2OC12CCN(c1cnc3c(N4CCCc5ncccc54)n[nH]c3n1)CC2 (stereo not given) + C#Cc1c(F)ccc2cc(O)cc(-c3ncc4c(N5CC6CCC(C5)N6)nc(OCC56CCCN5CC(F)C6)nc4c3F)c12", "CAT": "yes"}

From here, focus on the item given below.
Is the reported viability, T/C for CC(=O)OC12COC1CC(O)C1(C)C(=O)C(O)C3=C(C)C(OC(=O)C(O)C(NC(=O)OC(C)(C)C)c4ccccc4)CC(O)(C(OC(=O)c4ccccc4)C21)C3(C)C (stereo not given) + C#Cc1c(F)ccc2cc(O)cc(-c3ncc4c(N5CC6CCC(C5)N6)nc(OCC56CCCN5CC(F)C6)nc4c3F)c12 strictly below 40%? yes

Recorded values, source PubChem BioAssay AID2060900.
